measuredTarget: human tau(pS422) (Homo sapiens, UniProt P10636, S739X)
assayProcedure: BIAcore kinetic screening and kinetic rates of humanized VH/VL combinations
Format: binding
testSettings: 25 °C; VL17 or VL19 with VH variants
observedProperty: t/2 diss (min)
Please state the figure in min; there is no need to write the unit.

Example results:
1. VL17 with VH04: anti-human tau(pS422) antibody; VH SEQ ID NO: 49, VL SEQ ID NO: 37 (antibody, V domains shown, humanized sequence) VH: QSVLESGGGLVQPGGSLRLSCAVSGFSLSSNAINWVRQAPGKGLEWVGYIAVSGNTYYASWAKGRFTISRDSTTLYLQMNSLRAEDTAVYYCGKSNIWGPGTLVTVSS VL: DIQMTQSPSSLSASVGDRVTITCRSSQSVRTNKLAWFQQKPGQPPKRLIYSASTLDFGVPSRFSGSGSGTEFTLTISSLQPEDFATYYCLGYFDCSIADCVAFGGGTKVEIK | 3
2. VL17 with VH24: anti-human tau(pS422) antibody; VH SEQ ID NO: 56, VL SEQ ID NO: 37 (antibody, V domains shown, humanized sequence) VH: EVQLLESGGGLVQPGGSLRLSCAASGFSLSSNAINWVRQAPGKGLEWVGYIAVSGNTYYADSVKGRFTISKDNSKNTVYLQMNSLRAEDTAVYYCGKSNIWGQGTLVTVSS VL: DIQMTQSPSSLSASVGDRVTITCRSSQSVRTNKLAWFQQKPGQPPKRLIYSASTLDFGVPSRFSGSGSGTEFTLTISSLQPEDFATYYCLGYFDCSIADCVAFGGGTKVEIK | 15
3. VL19 with VH18: anti-human tau(pS422) antibody; VH SEQ ID NO: 52, VL SEQ ID NO: 38 (antibody, V domains shown, humanized sequence) VH: QQLVESGGGLVQPGGSLRLSCAASGFSLSSNAINWVRQAPGKGLEWVGYIAVSGNTYYADSVKGRFTISRDNSKNTLYLQMNSLRAEDTAVYYCGKSNIWGQGTLVTVSS VL: AQVMTQSPSSLSASVGDRVTITCRSSQSVRTNKLAWFQQKPGQPPKRLIYSASTLDFGVPSRFSGSGSGTEFTLTISSLQPEDFATYYCLGYFDCSIADCVAFGGGTKVEIK | 6

Kindly review the next molecule as well.
Given VH14 with VL19: anti-human tau(pS422) antibody; VH SEQ ID NO: 50, VL SEQ ID NO: 38 (antibody, V domains shown, humanized sequence) VH: QQLVESGGGLVQPGGSLRLSCAASGFSLSSNAINWVRQAPGKGLEWVGYIAVSGNTYYASWAKGRFTISRDNSKNTLYLQMNSLRAEDTAVYYCGKSNIWGPGTLVTVSS VL: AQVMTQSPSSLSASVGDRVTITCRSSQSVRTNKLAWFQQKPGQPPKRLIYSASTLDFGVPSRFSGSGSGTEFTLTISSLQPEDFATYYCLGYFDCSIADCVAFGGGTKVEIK , respond with its t/2 diss.
6
